The measurements presented in this section are drawn from ChEMBL document CHEMBL1201862.

System: SNB-75
Assay: NCI tumour cell line growth inhibition, 48 h
Calls of active or inactive are those of the source. Cut-off read from the data, not from the text of the source: active = GI50 up to about 1.1 µM and inactive = higher.
Give your call using only these classes: 1 (yes) for active, 0 (no) for inactive

Query :: Assay outcome for O=C(NCCCl)Nc1ccccc1 : what was it?
Result :: 0 (no)

Query :: Assay outcome for CCN(CCCl)c1cc(CN(C)C)cc(NC(=O)c2ccc(C(=O)Nc3cccc(N(CCCl)NN)c3)cc2)c1 : what was it?
Result :: 1 (yes)

Query :: Assay outcome for CC(Cc1ccc(O)cc1)NCC(O)c1ccc(O)c(O)c1 (stereo not drawn) : what was it?
Result :: 0 (no)

Query :: Assay outcome for CC1=N[C@](C)(C2CC3C=CC2C3=O)COC1=O (stereo partly drawn) : what was it?
Result :: 0 (no)

Query :: Assay outcome for CC1(C)CC(=O)C(=CNC(=S)c2ccccc2)C(=O)C1 : what was it?
Result :: 0 (no)

Query :: Assay outcome for N#CCCn1[nH]c(=O)c(Cl)c(Cl)c1=O : what was it?
Result :: 0 (no)

Query :: Assay outcome for NNC(=O)N/N=C1\C(=O)N(c2ccc(Cl)c(Cl)c2)C(=O)C(=O)C1c1nc2ccccc2s1 (stereo not drawn) : what was it?
Result :: 0 (no)

Query :: Assay outcome for CC(=O)CCN1CC2CN=NC2(C#N)C1 (stereo not drawn) : what was it?
Result :: 0 (no)

Query :: Assay outcome for COc1cc2oc(-c3ccccc3)cc(=O)c2c(O)c1C : what was it?
Result :: 0 (no)

Query :: Assay outcome for C=CC/N=C1\NC(=O)C(CC(=O)Nc2ccc(C)cc2)S1 (stereo not drawn) : what was it?
Result :: 0 (no)

Query :: Assay outcome for O=C1C=CC2(C=C1)CCC(=O)O2 : what was it?
Result :: 0 (no)

Query :: Assay outcome for O=C(/C=C1/Nc2ccc([N+](=O)[O-])cc2N/C1=C/C(=O)c1ccc(Cl)cc1)c1ccc(Cl)cc1 : what was it?
Result :: 0 (no)

Query :: Assay outcome for O=C(O)C/N=C(\C(=N\CC(=O)O)c1ccccc1)c1ccccc1 : what was it?
Result :: 0 (no)
